FYI, the data here is from patent US6858640B2.

Counter-ions that a name gives are not always drawn.
endpoint_label: melting point

CN(C)C1COc2cccc3c2c(cn3S(=O)(=O)c2ccc(C(F)(F)F)cc2)C1 (stereo not shown) (as salt: oxalate)	119 to 122 °C (dec.)
CN(C)C1COc2cccc3c2c(cn3S(=O)(=O)/C=C/c2ccccc2)C1 (stereo not shown) (as salt: oxalate)	169 to 171 °C (dec.)
CN(C)C1COc2cccc3c2c(cn3S(=O)(=O)c2ccc(Cl)cc2)C1 (stereo not shown) (as salt: oxalate)	114 to 118 °C (dec.)
CN(C)C1COc2cccc3c2c(cn3S(=O)(=O)c2cccs2)C1 (stereo not shown) (as salt: oxalate)	142 to 144 °C (dec.)
NC1COc2cccc3[nH]cc(c23)C1 (stereo not shown)	172 to 173 °C
CN(C)C1COc2c(-c3ccccc3)ccc3[nH]cc(c23)C1 (stereo not shown)	168 to 170 °C
CN(C)C1COc2cccc3[nH]c(Br)c(c23)C1 (stereo not shown)	170 to 172 °C
CSc1ccc2[nH]cc3c2c1OCC(N(C)C)C3 (stereo not shown)	112 to 113 °C
OC1COc2cccc3[nH]cc(c23)C1 (stereo not shown)	169 to 170 °C
c1cc2c3c(c[nH]c3c1)CC(N1CCCC1)CO2 (stereo not shown)	137 to 139 °C

Could you now look at the following compound, please?
Query: Name the recorded melting point of the item CNC1COc2cccc3c2c(cn3S(=O)(=O)c2ccccc2)C1 (stereo not shown) (as salt: oxalate) in your answer.
Response: 208 to 213 °C (dec.)

----------
# measured_target: 5HT1A (Rattus norvegicus)
# Construct: prepared from brain of rats or HEK293 cells, which expressed the receptor; from tissue; host or cells: rat brain membranes
# Sequence (P19327 1-422): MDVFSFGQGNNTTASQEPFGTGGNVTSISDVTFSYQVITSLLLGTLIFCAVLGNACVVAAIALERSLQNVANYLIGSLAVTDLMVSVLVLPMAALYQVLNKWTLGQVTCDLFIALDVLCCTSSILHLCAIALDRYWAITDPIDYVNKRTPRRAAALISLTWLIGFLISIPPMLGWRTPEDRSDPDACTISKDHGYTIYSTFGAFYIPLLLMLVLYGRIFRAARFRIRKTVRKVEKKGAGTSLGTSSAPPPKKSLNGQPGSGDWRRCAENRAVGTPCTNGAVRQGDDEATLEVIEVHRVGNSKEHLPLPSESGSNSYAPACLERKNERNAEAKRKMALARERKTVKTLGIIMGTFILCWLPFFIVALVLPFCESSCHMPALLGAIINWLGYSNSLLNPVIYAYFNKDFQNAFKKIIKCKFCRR
# assay_info: radioligand binding to serotonin receptor, cell membrane sample, Ki by Cheng-Prusoff
endpoint_label: pKi
Schema: pKi number; meaning minus log10 of the concentration expressed in molar units.

Query: Provide one value: measured pKi of c1cc2c3c(c[nH]c3c1)CC(N1CCCC1)CO2 (centres unmarked)
Response: 8.60

Query: Specify reported pKi for the molecule shown: CCCN(CCC)C1COc2cccc3[nH]cc(c23)C1 (centres unmarked)
Response: 8.00

Query: Please give measured pKi of the following entry: CN(C)C1COc2cccc3c2c(cn3S(=O)(=O)c2ccc(C(F)(F)F)cc2)C1 (centres unmarked)
Response: 7.02

Query: Please report pKi for the following molecule: c1cc2c3c(c[nH]c3c1)CC(NC1CC1)CO2 (centres unmarked)
Response: 8.42

Query: Please look at this molecule and report its pKi: CN(C)C1COc2cccc3c2c(cn3S(=O)(=O)c2cccs2)C1 (centres unmarked)
Response: 7.07

Query: Annotate the molecule CSc1ccc2[nH]cc3c2c1OCC(N(C)C)C3 (centres unmarked) with its measured pKi.
Response: 7.74

Query: Please report the measured pKi for C=CCNC1COc2cccc3[nH]cc(c23)C1 (centres unmarked)
Response: 7.72

Query: # return recorded pKi for entry CN(C)C1COc2c(Br)ccc3[nH]cc(c23)C1 (centres unmarked)
Response: 7.24

Query: Report measured pKi; entry is CNC1COc2cccc3[nH]cc(c23)C1 (centres unmarked)
Response: 7.64

Query: Answer with the recorded pKi of CNC1COc2c(Br)ccc3[nH]cc(c23)C1 (centres unmarked) only.
Response: 8.11

Query: Provide pKi value for the following molecule: CCCNC1COc2cccc3[nH]cc(c23)C1 (centres unmarked)
Response: 8.24

----------
# measured_target: 5HT6 (Homo sapiens)
# Construct: expressed in transfected cells; host or cells: HEK293
# Sequence (P50406 whole entry, species assumed): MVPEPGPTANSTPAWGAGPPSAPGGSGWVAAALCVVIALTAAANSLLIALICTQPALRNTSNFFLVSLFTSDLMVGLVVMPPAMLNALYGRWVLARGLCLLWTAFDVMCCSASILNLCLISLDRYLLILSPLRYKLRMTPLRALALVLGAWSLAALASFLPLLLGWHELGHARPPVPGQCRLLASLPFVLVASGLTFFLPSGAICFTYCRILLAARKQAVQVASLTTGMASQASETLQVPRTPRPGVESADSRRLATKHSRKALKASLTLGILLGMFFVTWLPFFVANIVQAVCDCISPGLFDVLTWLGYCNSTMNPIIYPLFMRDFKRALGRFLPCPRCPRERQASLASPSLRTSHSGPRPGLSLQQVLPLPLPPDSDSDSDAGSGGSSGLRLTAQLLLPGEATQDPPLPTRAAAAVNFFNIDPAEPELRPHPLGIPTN
# assay_info: radioligand binding to serotonin receptor, cell membrane sample, Ki by Cheng-Prusoff
Attribute: log10 of Ki
Heads up: the numbers are on a log10 scale; they represent Ki in nM.

Sample records with log10 of Ki:
CN(C)C1COc2cccc3c2c(cn3S(=O)(=O)c2ccc(Br)cc2)C1 (stereo not drawn) [Compound 20-11]	0.76
CN(C)C1COc2cccc3c2c(cn3S(=O)(=O)c2cc(Cl)ccc2Cl)C1 (stereo not drawn) [Compound 20-17]	1.46

Query: For the molecule CN(C)C1COc2cccc3c2c(cn3S(=O)(=O)c2ccc(F)cc2)C1 (stereo not drawn) [Compound 20-19] , give its measured log10 of Ki value.
Response: 1.08

Query: State its log10 of Ki: CN(C)C1COc2c(Br)ccc3c2c(cn3S(=O)(=O)c2ccccc2)C1 (stereo not drawn) [Compound 20-18]
Response: 1.34

Query: Read off the recorded log10 of Ki for CN(C)C1COc2cccc3c2c(cn3S(=O)(=O)c2cccs2)C1 (stereo not drawn) [Compound 20-9]
Response: 1.89

Query: Answer with the recorded log10 of Ki for the molecule listed here: CCN(CC)C1COc2cccc3c2c(cn3S(=O)(=O)c2ccccc2)C1 (stereo not drawn) [Compound 36-3]
Response: 0.62

----------
# measured_target: 5HT6 (Homo sapiens)
# Construct: expressed in transfected cells; host or cells: HEK293
# assay_info: radioligand binding to serotonin receptor, cell membrane sample, Ki by Cheng-Prusoff
# measurement_context: rat 5-HT6 (HEK293), 8 nM [3H] 5HT 25° C. 120 min or 4 nM [3H] LSD 37° C. 60 min; read-out: Ki value (nM) ±SE 5-HT6
endpoint_label: log10(Ki) (log10 of the value in nM)
The figures below represent log10 of Ki, where Ki is stated in nM.

CN(C)C1COc2cccc3c2c(cn3S(=O)(=O)c2ccc(-c3ccon3)s2)C1 (stereo not shown)	1.56

Query: Please indicate log10(Ki) recorded for CN(C)C1COc2cccc3c2c(cn3S(=O)(=O)c2ccc(Cl)s2)C1 (stereo not shown)
Response: 0.43

Query: For the compound COc1ccc(OC)c(S(=O)(=O)n2cc3c4c(cccc42)OCC(N(C)C)C3)c1 (stereo not shown) , give its measured log10(Ki) value.
Response: 1.00

Query: Tell me measured log10(Ki) for CN(C)C1COc2cccc3c2c(cn3S(=O)(=O)c2ccc(Cl)cc2)C1 (stereo not shown) please.
Response: 0.43

Query: Give a short answer stating reported log10(Ki) for CN(C)C1COc2cccc3c2c(cn3S(=O)(=O)c2ccc(F)cc2F)C1 (stereo not shown) .
Response: 1.41

Query: Complete the entry with log10(Ki) for COc1ccc(S(=O)(=O)n2cc3c4c(cccc42)OCC(N(C)C)C3)cc1OC (stereo not shown)
Response: 1.46

Query: Determine its reported log10(Ki): CN(C)C1COc2cccc3c2c(cn3S(=O)(=O)c2cc(F)c(Br)cc2F)C1 (stereo not shown)
Response: 1.04

----------
# measured_target: 5HT6 (Homo sapiens)
# Construct: expressed in transfected cells; host or cells: HEK293
# assay_info: radioligand binding to serotonin receptor, cell membrane sample, Ki by Cheng-Prusoff
Where a name gives a salt, the structure may show the parent alone.
Recorded pKi for the following compounds
Conceptually, pKi converts a concentration in mol/L into minus its log10.

CN(C)C1COc2cccc3c2c(cn3S(=O)(=O)c2ccc(C(F)(F)F)cc2)C1 (stereo not shown) [Compound 20-10]	7.35
CN(C)C1COc2c(C=O)ccc3[nH]cc(c23)C1 (stereo not shown) [Compound 46-1]	7.55
CN(C)C1CC(=O)c2cccc3c2c(cn3S(=O)(=O)c2ccccc2)C1 (stereo not shown) [Compound 20-1, oxalate]	8.77

// next item, pKi requested
Query: For the compound CNC1COc2cccc3c2c(cn3S(=O)(=O)c2ccccc2)C1 (stereo not shown) [Compound 36-2] , give its reported pKi.
Response: 8.07

----------
# measured_target: 5HT7 (Homo sapiens)
# Sequence (P34969 whole entry, species assumed): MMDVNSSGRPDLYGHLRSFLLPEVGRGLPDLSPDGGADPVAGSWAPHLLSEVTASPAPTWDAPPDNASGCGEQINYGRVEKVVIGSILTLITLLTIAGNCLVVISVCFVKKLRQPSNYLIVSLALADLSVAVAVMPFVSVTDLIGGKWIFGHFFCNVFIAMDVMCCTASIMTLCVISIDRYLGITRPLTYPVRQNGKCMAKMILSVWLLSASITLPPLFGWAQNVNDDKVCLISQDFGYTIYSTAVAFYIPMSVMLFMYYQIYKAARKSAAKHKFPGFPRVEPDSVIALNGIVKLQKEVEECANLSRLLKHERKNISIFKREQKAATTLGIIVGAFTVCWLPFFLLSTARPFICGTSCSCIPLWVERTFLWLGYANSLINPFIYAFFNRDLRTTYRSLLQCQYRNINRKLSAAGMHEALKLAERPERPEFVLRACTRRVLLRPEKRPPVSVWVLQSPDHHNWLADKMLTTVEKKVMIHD
# assay_info: radioligand binding to serotonin receptor, cell membrane sample, Ki by Cheng-Prusoff
# measurement_context: Human 5-HT7 (HEK293), 0.5 nM [3H] 5CT, 25° C. 120 min; read-out: Ki value (nM) ±SE 5-HT7
endpoint_label: Ki (nM)
Number in nM, nothing else.

Solved entries (count: 2):
CN(C)C1COc2c(-c3ccccc3)ccc3[nH]cc(c23)C1 (stereo not drawn)	22
COC(=O)/C=C/c1ccc2[nH]cc3c2c1OCC(N(C)C)C3 (stereo not drawn)	73

# ---- query molecule ----
Query: Quick one: give measured Ki for C=Cc1ccc2[nH]cc3c2c1OCC(N(C)C)C3 (stereo not drawn)
Response: 74
